target: recombinant rat α3β3γ2F77I receptors (Rattus norvegicus, UniProt P18508+P20236, F115I); experiment: Two-electrode voltage clamp of GABA-induced chloride currents in Xenopus oocytes; format: cell-based; conditions: 1 μM; α3β3γ2F77I; ns = not significant
Sequence (P20236 29-493, one chain of several): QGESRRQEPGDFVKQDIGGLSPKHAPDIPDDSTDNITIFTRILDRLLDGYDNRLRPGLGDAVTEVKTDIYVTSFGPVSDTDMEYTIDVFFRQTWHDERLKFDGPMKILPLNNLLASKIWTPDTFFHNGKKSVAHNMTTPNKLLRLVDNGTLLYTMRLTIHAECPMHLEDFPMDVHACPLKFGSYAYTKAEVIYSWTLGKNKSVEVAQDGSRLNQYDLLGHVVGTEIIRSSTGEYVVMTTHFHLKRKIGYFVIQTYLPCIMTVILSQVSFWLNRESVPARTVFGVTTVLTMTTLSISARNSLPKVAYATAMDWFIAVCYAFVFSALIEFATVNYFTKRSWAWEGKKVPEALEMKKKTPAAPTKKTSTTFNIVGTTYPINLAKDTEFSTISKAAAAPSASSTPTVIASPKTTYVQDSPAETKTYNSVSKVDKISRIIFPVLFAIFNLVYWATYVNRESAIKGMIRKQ
Sequence (P18508 39-466 F115I, one chain of several): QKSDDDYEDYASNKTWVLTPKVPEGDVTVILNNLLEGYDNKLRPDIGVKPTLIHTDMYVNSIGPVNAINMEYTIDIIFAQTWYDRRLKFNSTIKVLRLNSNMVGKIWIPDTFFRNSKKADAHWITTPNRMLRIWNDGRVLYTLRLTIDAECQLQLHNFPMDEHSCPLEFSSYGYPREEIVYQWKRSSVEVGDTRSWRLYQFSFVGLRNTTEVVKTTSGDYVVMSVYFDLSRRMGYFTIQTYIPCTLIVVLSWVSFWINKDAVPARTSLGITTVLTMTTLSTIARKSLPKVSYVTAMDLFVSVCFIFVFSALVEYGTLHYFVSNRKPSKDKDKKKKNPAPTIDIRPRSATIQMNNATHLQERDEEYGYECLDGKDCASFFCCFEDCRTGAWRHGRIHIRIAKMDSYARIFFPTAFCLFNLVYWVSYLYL
# efficacy (% GABA EC3) annotations
Please respond with the number in % GABA EC3 and leave the unit unwritten.

// worked examples, efficacy (% GABA EC3) included
- compound: "CN1C(=O)CN=C(c2ccccc2)c2cc(Cl)ccc21"
  system-tested: "recombinant rat α3β3γ2F77I receptors (Rattus norvegicus, UniProt P18508+P20236, F115I)"
  efficacy (% GABA EC3): 263
- compound: "CCc1c(C(=O)OC)ncc2[nH]c3cc(OC)c(OC)cc3c12"
  system-tested: "recombinant rat α3β3γ2F77I receptors (Rattus norvegicus, UniProt P18508+P20236, F115I)"
  efficacy (% GABA EC3): 126

Which efficacy (% GABA EC3) is listed for CCOC(=O)c1ncn2c1CN(C)C(=O)c1cc(F)ccc1-2 ?
118

Which efficacy (% GABA EC3) is listed for CN1CCN(C(=O)OC2c3nccnc3C(=O)N2c2ccc(Cl)cn2)CC1 (centres unmarked) ?
107

Which efficacy (% GABA EC3) is listed for CC(C)(C)OC(=O)c1ncn2c1[C@@H]1CCCN1C(=O)c1c(Br)cccc1-2 ?
143

* * *

biological target: recombinant rat α4β3γ2 receptors (Rattus norvegicus, UniProt P18508+P28471); test: Two-electrode voltage clamp of GABA-induced chloride currents in Xenopus oocytes; assay type: cell-based; settings: 100 nM; α4β3γ2; ns = not significant
Sequence (P28471 36-552): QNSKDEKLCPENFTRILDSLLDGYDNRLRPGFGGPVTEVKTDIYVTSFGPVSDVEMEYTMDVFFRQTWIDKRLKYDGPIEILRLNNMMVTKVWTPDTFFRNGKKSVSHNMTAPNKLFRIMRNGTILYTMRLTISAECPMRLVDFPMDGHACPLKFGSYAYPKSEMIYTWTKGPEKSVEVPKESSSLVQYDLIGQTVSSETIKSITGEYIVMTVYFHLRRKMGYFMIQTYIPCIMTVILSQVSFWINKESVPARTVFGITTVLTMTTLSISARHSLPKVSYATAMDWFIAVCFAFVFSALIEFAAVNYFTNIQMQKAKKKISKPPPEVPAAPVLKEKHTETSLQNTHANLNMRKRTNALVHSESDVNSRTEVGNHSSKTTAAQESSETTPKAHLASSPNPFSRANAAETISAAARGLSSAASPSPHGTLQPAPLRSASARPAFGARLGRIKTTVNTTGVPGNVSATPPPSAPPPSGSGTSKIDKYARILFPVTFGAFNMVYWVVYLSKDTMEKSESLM
Sequence (P63079 26-473 partner): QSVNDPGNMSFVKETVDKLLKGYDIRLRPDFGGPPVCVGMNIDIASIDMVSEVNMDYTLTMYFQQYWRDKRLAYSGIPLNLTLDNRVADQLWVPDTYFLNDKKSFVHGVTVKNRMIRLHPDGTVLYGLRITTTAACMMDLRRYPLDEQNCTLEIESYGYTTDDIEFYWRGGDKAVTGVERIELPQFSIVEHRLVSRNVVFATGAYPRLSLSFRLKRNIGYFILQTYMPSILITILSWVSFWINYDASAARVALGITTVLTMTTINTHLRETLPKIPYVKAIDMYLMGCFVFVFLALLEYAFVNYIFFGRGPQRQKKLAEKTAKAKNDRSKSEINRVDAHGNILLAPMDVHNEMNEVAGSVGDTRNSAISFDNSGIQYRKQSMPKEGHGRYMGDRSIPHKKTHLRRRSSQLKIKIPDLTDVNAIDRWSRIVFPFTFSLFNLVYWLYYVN
Sequence (P18508 39-466): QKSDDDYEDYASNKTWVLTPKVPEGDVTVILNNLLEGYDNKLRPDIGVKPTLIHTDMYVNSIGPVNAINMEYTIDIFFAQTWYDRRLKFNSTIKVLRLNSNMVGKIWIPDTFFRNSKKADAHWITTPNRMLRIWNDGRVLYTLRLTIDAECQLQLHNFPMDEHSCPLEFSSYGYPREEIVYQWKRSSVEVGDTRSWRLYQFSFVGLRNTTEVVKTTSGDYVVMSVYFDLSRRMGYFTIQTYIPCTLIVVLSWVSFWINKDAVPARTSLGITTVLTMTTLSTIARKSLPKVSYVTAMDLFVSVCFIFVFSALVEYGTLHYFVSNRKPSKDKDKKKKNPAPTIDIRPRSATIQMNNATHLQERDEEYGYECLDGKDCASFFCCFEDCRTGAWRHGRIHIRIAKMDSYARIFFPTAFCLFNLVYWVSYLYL
# efficacy (% GABA EC3) annotations
Please respond with the number in % GABA EC3 and leave the unit unwritten.

Which efficacy (% GABA EC3) is listed for CC(C)(C)OC(=O)c1ncn2c1[C@@H]1CCCN1C(=O)c1c(Br)cccc1-2 [Bretazenil] ?
156

Which efficacy (% GABA EC3) is listed for CCc1c(C(=O)OC)ncc2[nH]c3cc(OC)c(OC)cc3c12 [DMCM] ?
77

Which efficacy (% GABA EC3) is listed for CCOC(=O)c1ncn2c1CN(C)C(=O)c1cc(F)ccc1-2 [Ro15–1788] ?
132

* * *

biological target: recombinant rat α3β3γ2 receptors (Rattus norvegicus, UniProt P18508+P20236); assay: Two-electrode voltage clamp of GABA-induced chloride currents in Xenopus oocytes; format: cell-based; settings: 100 nM; α3β3γ2; ns = not significant
Sequence (P20236 29-493, one chain of several): as the sequence (P20236 29-493, one chain of several) above
# efficacy (% GABA EC3) annotations
Please respond with the number in % GABA EC3 and leave the unit unwritten.

// worked examples, efficacy (% GABA EC3) included
- compound: "CCc1c(C(=O)OC)ncc2[nH]c3cc(OC)c(OC)cc3c12"
  observed-result: 69
- compound: "CN1CCN(C(=O)OC2c3nccnc3C(=O)N2c2ccc(Cl)cn2)CC1 (stereo not shown)"
  observed-result: 161
- compound: "CN1C(=O)CN=C(c2ccccc2)c2cc(Cl)ccc21"
  observed-result: 437
- compound: "CC(C)(C)OC(=O)c1ncn2c1[C@@H]1CCCN1C(=O)c1c(Br)cccc1-2"
  observed-result: 213
- compound: "Cc1nnc2ccc(-c3cccc(C(F)(F)F)c3)nn12"
  observed-result: 114

Which efficacy (% GABA EC3) is listed for CCOC(=O)c1ncn2c1CN(C)C(=O)c1cc(F)ccc1-2 ?
148
